Origin of values: paper PMC9027509

This section presents molecules with their documented Papp values.
Assay: Permeation across lipid-free support sheets (support layer of PermeaPad), reversed Franz cell setup
Type: in vitro ADME
Conditions: pH 6.5, pretreated 30 min with 300 mOsm/kg NaCl solution; 300 mOsm PBS pH 6.5, 37 °C; mean ± SD; read-out: Permeability across support layer
Use ×10⁻⁶ cm/s as the unit, but write only the number.

Worked set:
Query: Give recorded Papp. O=C(O)CN(CC(=O)O)Cc1cc2c(cc1O)Oc1cc(O)c(CN(CC(=O)O)CC(=O)O)cc1C21OC(=O)c2ccccc21
Response: 2.84

Query: Give recorded Papp. Nc1nc2c(ncn2COCCO)c(=O)[nH]1
Response: 33.2

Turning now to a further record.
Query: Give recorded Papp. Cc1ccc(-c2cc(C(F)(F)F)nn2-c2ccc(S(N)(=O)=O)cc2)cc1
Response: 46.2

----------
Experiment: Permeation across lipid-free support sheets (support layer of PermeaPad), reversed Franz cell setup
Type: in vitro ADME
Conditions: pH 6.5, pretreated 30 min with 50 mOsm/kg NaCl solution; 300 mOsm PBS pH 6.5, 37 °C; mean ± SD; read-out: Permeability across support layer
Experimental: During these studies, phosphate-buffered saline (PBS) was used as the acceptor medium and for the preparation of donor media for permeation experiments. […] Finally, the osmolality was measured on a semi-micro osmometer K-7400 from KNAUER Wissenschaftliche Geräte GmbH (Berlin, Germany), and NaCl was added to obtain an osmolality of 300 mOsm. […] The column temperature was 40 °C during measurement. […] All quantification was with a freshly prepared calibration curve in the relevant range. […]
Parameter: Papp

Query: Give recorded Papp. Nc1nc2c(ncn2COCCO)c(=O)[nH]1
Response: 32.7 ×10⁻⁶ cm/s

Query: Give recorded Papp. O=C(O)CN(CC(=O)O)Cc1cc2c(cc1O)Oc1cc(O)c(CN(CC(=O)O)CC(=O)O)cc1C21OC(=O)c2ccccc21
Response: 2.51 ×10⁻⁶ cm/s

Turning now to a further record.
Query: Give recorded Papp. Cc1ccc(-c2cc(C(F)(F)F)nn2-c2ccc(S(N)(=O)=O)cc2)cc1
Response: 46.3 ×10⁻⁶ cm/s
